# Test target: USP28 (His-tagged USP28-FL-mammalian) (Homo sapiens)
# Construct: Expression of USP28 (1-1077)-TEV-6*His (pTT5 vector); made in house; host or cells: Expi293f cells (pTT5 vector)
# Sequence (Q96RU2 whole entry): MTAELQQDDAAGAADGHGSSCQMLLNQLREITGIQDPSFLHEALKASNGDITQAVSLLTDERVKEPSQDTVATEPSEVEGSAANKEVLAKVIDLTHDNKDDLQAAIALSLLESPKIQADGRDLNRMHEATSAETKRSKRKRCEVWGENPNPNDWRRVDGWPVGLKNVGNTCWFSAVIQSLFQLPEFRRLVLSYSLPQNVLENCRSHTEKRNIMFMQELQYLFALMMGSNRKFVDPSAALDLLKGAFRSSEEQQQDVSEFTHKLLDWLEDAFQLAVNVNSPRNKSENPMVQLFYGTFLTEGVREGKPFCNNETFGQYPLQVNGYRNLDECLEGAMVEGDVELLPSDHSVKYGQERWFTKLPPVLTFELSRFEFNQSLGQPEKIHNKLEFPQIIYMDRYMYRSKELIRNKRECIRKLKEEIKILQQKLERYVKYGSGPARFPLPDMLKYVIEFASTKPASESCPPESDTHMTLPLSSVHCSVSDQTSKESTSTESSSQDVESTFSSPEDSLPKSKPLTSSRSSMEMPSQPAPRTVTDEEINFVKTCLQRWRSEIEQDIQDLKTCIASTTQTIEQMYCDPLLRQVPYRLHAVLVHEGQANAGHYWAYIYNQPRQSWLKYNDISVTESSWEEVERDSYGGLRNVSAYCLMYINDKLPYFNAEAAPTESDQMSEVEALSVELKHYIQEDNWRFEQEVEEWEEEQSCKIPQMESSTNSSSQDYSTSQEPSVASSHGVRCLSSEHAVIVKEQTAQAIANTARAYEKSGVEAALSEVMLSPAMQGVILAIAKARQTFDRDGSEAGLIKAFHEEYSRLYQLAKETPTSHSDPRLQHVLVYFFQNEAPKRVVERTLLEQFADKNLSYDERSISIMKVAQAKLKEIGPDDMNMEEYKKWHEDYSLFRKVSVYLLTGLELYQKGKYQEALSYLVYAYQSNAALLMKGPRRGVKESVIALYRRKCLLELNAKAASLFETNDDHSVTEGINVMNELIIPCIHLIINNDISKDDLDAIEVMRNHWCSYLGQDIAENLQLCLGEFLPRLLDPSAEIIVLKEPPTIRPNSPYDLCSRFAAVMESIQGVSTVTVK
# Method: Ubiquitin-Rhodamine 110 Assay for USP28 Activity, Example A-1(a)
# Assay type: biochemical
# Condition: Ubiquitin-Rhodamine 110 assay, format Example A-1(a); read-out: USP28 A-1(a) IC50 range
# From the text: Example A-1(a): Biochemical Assay: Ubiquitin-Rhodamine 110 Assay for USP28 Activity […] For assay formats Example A-1(a), A-1(b), and A-2, data were reported as percent inhibition compared with control wells based on the following equation: % inh=1−((FLU−AveLow)/(AveHigh−AveLow)) where FLU=measured Fluorescence, AveLow=average Fluorescence of no enzyme control (n=16), and AveHigh=average Fluorescence of DMSO control (n=16). […]
pIC50: −log10 of the molar value.
Observable: pIC50

>>> recorded_result("Cc1ccc2c(N)c(C(=O)N[C@@H]3COc4c(F)c(N5CC6CCC(C5)N6)cc(F)c4C3)sc2n1 (single isomer, unassigned)")
"5.70 to 6.70"
>>> recorded_result("Cc1ccc2c(N)c(C(=O)N[C@H]3COc4cc(N5CCNCC5)ncc4C3)sc2n1")
"7.30 to 9.00"
>>> recorded_result("Cc1ccc2c(N)c(C(=O)N[C@H]3CCc4cc(N5CC6CCC(C5)N6)c(F)cc4C3)sc2n1 (single isomer, unassigned)")
"5.70 to 6.70"
>>> recorded_result("Cc1ccc2c(N)c(C(=O)N[C@@H]3CCc4c(ccc(N5CC6CCC(C5)N6)c4C#N)C3)sc2n1 (single isomer, unassigned)")
"7.30 to 9.00"
>>> recorded_result("Cc1ccc2c(N)c(C(=O)N[C@H]3COc4cc(N5CC6CCC(C5)N6)nc(F)c4C3)sc2n1")
"7.30 to 9.00"
>>> recorded_result("Cc1ccc2c(N)c(C(=O)N[C@H]3CCc4cc(N5CCNCC5)cnc4C3)sc2n1 (single isomer, unassigned)")
"5.70 to 6.70"
>>> recorded_result("Cc1ccc2c(N)c(C(=O)N[C@H]3COc4c(ccc(N5CCNCC5)c4Cl)C3)sc2n1")
"7.30 to 9.00"
>>> recorded_result("Cc1ccc2c(N)c(C(=O)N[C@H]3CCc4c(F)c(N5CC6CNCC(C5)O6)cc(F)c4C3)sc2n1 (single isomer, unassigned)")
"5.70 to 6.70"
>>> recorded_result("Cc1ccc2c(N)c(C(=O)N[C@H]3COc4nc(N5CCNCC5)c(F)cc4C3)sc2n1")
"6.70 to 7.30"
>>> recorded_result("CO[C@H]1CN(c2ccc3c(n2)CC[C@@H](NC(=O)c2sc4nc(C)ccc4c2N)C3)C[C@@H]1N")
"5.70 to 6.70"
>>> recorded_result("Cc1ccc2c(N)c(C(=O)N[C@@H]3COc4c(ccc(N5CCNCC5)c4Cl)C3)sc2n1")
"5.70 to 6.70"
>>> recorded_result("Cc1ccc2c(N)c(C(=O)N[C@H]3CCc4c(F)c(N5CCNCC5)cc(F)c4C3)sc2n1 (single isomer, unassigned)")
"5.70 to 6.70"
>>> recorded_result("Cc1ccc2c(N)c(C(=O)N[C@H]3CCc4cc(N5C6CNCC5C6)ccc4C3)sc2n1 (single isomer, unassigned)")
"7.30 to 9.00"
>>> recorded_result("Cc1ccc2c(N)c(C(=O)N[C@@H]3CCc4cc(N5CC6CCC(C5)N6)c(F)cc4C3)sc2n1 (single isomer, unassigned)")
"7.30 to 9.00"

Source of measurements: patent US11524966B1
